So I've got a bunch of compounds here, and I need their growth inhibition values.
# Assay method text: NCI Yeast Anticancer Drug Screen. Data for the cln2 rad14 strain (AID 165);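 note: 0% = growth equal to vehicle treated cultures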
# Setup conditions: S. cerevisiae cln2 rad14 strain, at 50.0 µM, stronger effect = higher value
This is part of a sample that, as a whole, favours compounds with a hit. Of some 79,000 tested, about 15% had one in any assay.
One number for each entry, in %.

Example results:
{"Compound": "CCOC(=O)/C(=C\\c1ccc(C)cc1)C(C)=O", "Measured quantity": "growth inhibition", "Unit abbrev": "%", "Recorded result": 84.7}
{"Compound": "CCC(/C=C/c1ccccc1)=N\\Nc1ccccc1", "Measured quantity": "growth inhibition", "Unit abbrev": "%", "Recorded result": -12.3}
{"Compound": "O=C(Oc1cc([N+](=O)[O-])ccc1Cl)Oc1cc([N+](=O)[O-])ccc1Cl", "Measured quantity": "growth inhibition", "Unit abbrev": "%", "Recorded result": 97.9}

Hi there! I need growth inhibition for each item below, if you can.
1. Cc1nc2ccc3c(ccc4nc(C)c(N=Nc5ccc(C(=N)N)cc5)c(O)c43)c2c(O)c1N=Nc1ccc(C(=N)N)cc1
2. CCCCNCCCNCCCNC(=O)c1csc(-c2csc(CCNC(=O)C(NC(=O)C(C)C(O)C(C)NC(=O)C(NC(=O)c3nc(C(CC(N)=O)NCC(N)C(N)=O)nc(N)c3C)C(OC3OC(CO)C(O)C(O)C3OC3OC(CO)C(O)C(OC(N)=O)C3O)c3cnc[nH]3)C(C)O)n2)n1 (centres undefined)
3. NC(=S)N/N=C\C12CC3CC(CC(C3)C1)C2
4. CC(C)N(C(=O)C12C3C4C5(C#N)C3C1(C#N)C5C42I)C(C)C (centres undefined)
5. CC(SC1=CC(=O)c2c(O)ccc(O)c2C1=O)C(=O)O (centres undefined)
6. CCCCN1CSC(=S)N(Cc2ccccc2)C1

// result
1: 87; 2: 91.9; 3: 71.5; 4: 68.5; 5: -27.6; 6: -41.1

###

# Assay method text: NCI Yeast Anticancer Drug Screen. Data for the mec2-1 strain (AID 157)
# Setup conditions: S. cerevisiae mec2-1 strain, at 5.0 µM (retest, dose inferred, filed as 0.5)
About 79,000 compounds went through this panel and 15% of them were active in at least one assay; those are over-represented in the sample as a whole. Calls of active or inactive are those of the source. Cut-off read from the data, not from the text of the source: active = growth inhibition above about 70%; inactive = the rest.
Mark one answer only. Choices: active, inactive

# count of solved cases: 4
{"Smiles": "COc1ccccc1NC(=O)O/N=C(/Cl)C(C)C", "Label class": "inactive"}
{"Smiles": "CCCCNC(=S)N/N=C/c1cccc(C)n1", "Label class": "inactive"}
{"Smiles": "COc1ccc(CN2CCCN(Cc3ccc(OC)cc3OC)C2c2cc(Cl)cc(Cl)c2O)c(OC)c1", "Label class": "inactive"}
{"Smiles": "CCOC(=O)c1sc2c(c1O)c(=O)n(-c1ccccc1)c(=S)n2-c1ccccc1", "Label class": "active"}

From here, focus on the item given below.
// query # fetch the recorded call for c1ccc([P+](Cc2ccc(C[P+](c3ccccc3)(c3ccccc3)c3ccccc3)s2)(c2ccccc2)c2ccccc2)cc1 here
// result inactive

###

# Assay method text: NCI Yeast Anticancer Drug Screen. Data for the rad50 strain (AID 155);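 note: 0% = growth of vehicle-only cultures of the same strain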
# Setup conditions: S. cerevisiae rad50 strain growth inhibition; at 50.0 µM (retest, dose inferred, filed as 5.0)
About 79,000 compounds went through this panel and 15% of them were active in at least one assay; those are over-represented in the sample as a whole. Active and inactive are the calls of the source. Rule as the data show it: active = growth inhibition above about 70%; inactive = the rest.
Mark one answer only. Choices: active, inactive

// query # fetch the recorded call for c1ccc(Cn2nnc(-c3ccccc3)c2-c2ccccc2)cc1 here
// result active

// query # fetch the recorded call for CCOC1(OCC)Cc2nc3ccccc3cc21 here
// result active

// query # fetch the recorded call for Cc1sc(N=Nc2c(O)[nH]c3ccccc23)nc1-c1ccccc1 here
// result inactive

// query # fetch the recorded call for Clc1ccc(C(CCOc2ccccc2Br)Cn2ccnc2)c(Cl)c1 (stereo unspecified) here
// result active

// query # fetch the recorded call for CCC[CH2][Sn]([CH2]CCC)([O]C(=O)c1cc(F)ccc1F)[O][Sn]([CH2]CCC)([CH2]CCC)[O]C(=O)c1cc(F)ccc1F here
// result active

// query # fetch the recorded call for CC(C)COP(=O)(OCC(C)C)C(NS(=O)(=O)c1ccccc1)(C(F)(F)F)C(F)(F)F here
// result inactive

// query # fetch the recorded call for CC1C[N+](C)(C)C(C)C(=O)C1(c1ccccc1)c1ccccc1 (stereo unspecified) here
// result inactive

// query # fetch the recorded call for CCCCC#CCOC(=O)c1cc([N+](=O)[O-])cc([N+](=O)[O-])c1 here
// result active

// query # fetch the recorded call for O=C(Nc1nc2c(ncn2C2CC(OC(=O)c3ccccc3)C(COC(=O)c3ccccc3)O2)c(=O)[nH]1)c1ccccc1 (stereo unspecified) here
// result inactive

// query # fetch the recorded call for CC1(C)NC(=O)C(C)(C)NC1=O here
// result inactive

// query # fetch the recorded call for CC(C)CCCC(=O)CCCCCCC(=O)CCN(O)C(=O)C(N)CO (stereo unspecified) here
// result active

// query # fetch the recorded call for Cc1cc(OC(=O)CCl)ccc1C(C)(C)C here
// result inactive

// query # fetch the recorded call for O=C1OC(OC/C(Br)=C(/Br)COC2OC(=O)C(Cl)=C2Cl)C(Cl)=C1Cl (stereo unspecified) here
// result active

// query # fetch the recorded call for O=[N+]([O-])c1ccccc1OS(=O)(=O)c1ccccc1 here
// result inactive

// query # fetch the recorded call for C=CCN1/C(=C\C=C\c2ccc3cc(C)ccc3[n+]2CC=C)C=Cc2cc(C)ccc21 here
// result active

// query # fetch the recorded call for O=C1NC(c2ccccc2)(c2ccccc2)C(=O)N1SC(Cl)(Cl)Cl here
// result active

// query # fetch the recorded call for S=C1NCCNC(=S)SS1 here
// result active

// query # fetch the recorded call for CCCCCCC(O)CCOC(C)=O (stereo unspecified) here
// result inactive

// query # fetch the recorded call for CC(=O)NCC1OC2COC(c3ccccc3)OC2C(NC(=O)c2ccccc2)C1OC(=O)c1ccccc1 (stereo unspecified) here
// result inactive

// query # fetch the recorded call for O=C(C(=O)n1ncc(Cl)c(Cl)c1=O)n1ncc(Cl)c(Cl)c1=O here
// result inactive

// query # fetch the recorded call for S=c1[nH]nc(Nc2ccccc2Cl)s1 here
// result inactive

// query # fetch the recorded call for Cc1cc2nc3c(C)c4ccccc4c(C)n3c2cc1C here
// result active
